Would you mind telling me the reported TGI of each entry?
system: MALME-3M melanoma; assay: NCI tumour cell line growth inhibition, 48 h
Entry rule: numbers only, all in µM.

Request the reported TGI associated with "CC[C@]1(O)C[C@@H]2CN(CCc3c([nH]c4ccccc34)[C@@](C(=O)OC)(c3cc4c(cc3OC)N(C)[C@H]3[C@@](O)(C(=O)OC)[C@H](OC(C)=O)[C@]5(CC)C=CCN6CC[C@]43[C@@H]65)C2)C1"
14.1

Name the recorded TGI for "CN1CCN(C(=O)OCc2nc3c(N4CCOCC4)nc(Cl)nc3n2C)CC1" .
2.87

Returns the measured TGI for the input compound. Input: "O=C(/C(Br)=C/c1ccccc1)c1ccccc1"
3.9

Which TGI is listed for FC(F)(F)c1ccc2nc3n(c2c1)C(c1c(Cl)cccc1Cl)SC3 (stereo unspecified) ?
29.9

Item "CCN(CC)c1ccc(/C=C/c2ccc3cc(C)ccc3[n+]2CC)cc1" has what recorded TGI?
1.33

Entry "O=C(N/N=C/c1cc(Br)cc(Br)c1[O-])c1ccccc1O.O=C(N/N=C/c1cc(Br)cc(Br)c1[O-])c1ccccc1O.[Fe+2]" : reported TGI = ?
37.5

I have this compound here, "N#Cc1c(-c2ccc(F)cc2)nc(N/N=C/c2c[nH]c3ccccc23)nc1N1CCOCC1" , and I need its recorded TGI.
4.76

====

test system: HCC-2998 colon; test: NCI tumour cell line growth inhibition, 48 h
Field: TGI. Provide a value for each of the molecules that follow.

Look up TGI for this molecule: "C/C(CC(=O)Nc1ccc(C)cc1C)=N/N=C(N)N"
> 100 µM

Which value of TGI has been reported for NC(CCC(=O)NC(CSSCCCCS(=O)O)C(=O)NCC(=O)O)C(=O)O (stereo unspecified) in the records?
> 100 µM

Returns the measured TGI for the input molecule. Input: "Cn1c2ccccc2n2c(=O)c3cc([N+](=O)[O-])ccc3c(C#N)c12"
> 100 µM

Query (molecule): "NC(=O)C(=CNC(=S)c1ccncc1)C(N)=O" ; field requested: TGI
> 100 µM

Fill in: TGI of "COc1ccc(Nc2nc3c([nH]2)c(=O)n(C)c(=O)n3C)cc1" is ___
> 10 µM

Using the record for CC1=NN(C(=O)Nc2ccccc2)C(=O)C2CCC(=O)N12 (stereo unspecified) , report its TGI.
> 100 µM

====

Assignment: determine reported TGI for the given compounds.
tested on: SK-OV-3 ovarian; test: NCI tumour cell line growth inhibition, 48 h

Any idea what TGI was measured for CCC(C(=O)c1ccc(OC)c(OC)c1)N(C(=O)C(F)(F)F)C(C)c1ccccc1 (stereo not given) ?
> 100 µM

Recorded TGI of "O=C(CC1=NCCN1)c1ccccc1" , please.
> 750 µM

TGI for FC(F)(F)c1ccc2nc3n(c2c1)C(c1c(Cl)cccc1Cl)SC3 (stereo not given) ?
27.9 µM

Query: TGI; subject: "O=C(N/N=C/c1cc(Br)cc(Br)c1[O-])c1ccccc1O.O=C(N/N=C/c1cc(Br)cc(Br)c1[O-])c1ccccc1O.[Fe+2]"
13.9 µM

Request the reported TGI associated with "COc1ccc(/C=C/c2nccc3ccccc23)cc1OC"
> 10 µM

What value of TGI has been reported for the following compound? "N#Cc1ccc(NC(=O)Nc2ccc(Oc3ccc(NC(=O)Nc4ccc(C#N)cc4)cc3)cc2)cc1"
46.3 µM

Entry "O=C(N/N=C/c1ccccc1O)c1ccccc1Nc1ccnc(C(F)(F)F)c1" : reported TGI = ?
38 µM

Query (compound): O=C1CSC(c2cccs2)N1c1nc2cc3sc(N4C(=O)CSC4c4cccs4)nc3cc2s1 (stereo not given) ; field requested: TGI
> 50 µM

Entry "C=c1c(OC)c(OC)c(O)c2c1=c1cc([N+](=O)[O-])cc(OC)c1=N2" has what TGI?
> 100 µM

Which measured TGI value corresponds to "O=C1C=CC(=O)c2c(O)c(NCCc3ccc(O)cc3)c(Cl)c(O)c21" ?
> 10 µM

// returns reported TGI for input CCOC(=O)C1=C(OC(OCC)C(CC)[Se]c2ccccc2)CCCC1 (stereo not given)
> 100 µM

Returns the measured TGI for the input compound. Input: "O=c1[nH]nc(-c2ccccc2)c2[nH]c(-c3ccccc3)cc12"
> 100 µM

Give the measured TGI of CC1(C)CNC(=O)C2(C=NC(C)(C)CNC(=O)C3(C=N1)CCCO3)CCCO2 (stereo not given) .
> 10 µM

Can you look up the measured TGI of "CN1CCN(C(=O)OCc2nc3c(N4CCOCC4)nc(Cl)nc3n2C)CC1" for me?
18.8 µM

Recorded TGI for "Cc1cc2c(cc1C)[n+](=O)c(C(=O)C/C(=N/NC(=O)CC#N)C(=O)Nc1ccccc1C(F)(F)F)c(C)n2[O-]" , please?
> 100 µM

Can you look up the measured TGI of "Nc1cc(N)c2nc(-c3ccccc3)c(Nc3ccc(Cl)c(Cl)c3)nc2c1" for me?
31.3 µM

So what does the record say about TGI for "COCc1nc2c(OC)cc(-c3nc4ccc(N5CCN(C)CC5)cc4[nH]3)c(OC)c2[nH]1" ?
> 100 µM

Param item = "CC(=O)OC[C@]1(C)C=C2C(=O)[C@](C)(O)C3(CC3)C(C)=C2[C@H]1O" ; retrieve measured TGI.
1.11 µM

May I ask what TGI has been recorded for "COc1c(Br)cc(CC(N)=O)c(O)c1Br" ?
> 100 µM

Dear colleague, I am looking for the recorded TGI of the following compound: "COc1ccc(-c2cc(=O)c3c(OC)c(OC)c(OC)cc3o2)cc1"
88.2 µM

Would you kindly share the measured TGI for O=C1C2c3[nH]c4ccccc4c3C3CCCCCCC3C2C(=O)N1c1ccccc1 (stereo not given) ?
6.37 µM

Item "CCOC(=O)/C(C#N)=N\Nc1ccc(-n2c(C)nc3ccccc3c2=O)cc1" has what recorded TGI?
> 100 µM

State the recorded TGI for this entry: "c1ccc(/C(=N/Nc2ccccn2)c2ncccn2)cc1"
> 28.7 µM

Please report the recorded TGI for CCNC(=O)C1CCCN1C(=O)C(CCCN=C(N)N)NC(=O)C(CC(C)C)NC(=O)C(Cc1c[nH]c2ccccc12)NC(=O)C(Cc1ccc(O)cc1)NC(=O)C(CO)NC(=O)C(Cc1c[nH]c2ccccc12)NC(=O)C(Cc1cnc[nH]1)NC(=O)C1CCC(=O)N1 (stereo not given) .
> 100 µM

Recorded TGI for "O=C(Nc1ccccc1C(=O)NCCCO)/C(=C/c1ccccc1O)NC(=O)c1ccccc1" , please?
> 100 µM

Would you kindly share the measured TGI for "COC(=O)C1=Nc2c(C)nn(-c3ccccc3)c2N=C(c2ccc([N+](=O)[O-])cc2)C1" ?
> 10 µM

So what's the measured TGI for this one? "COC(=O)CN1CCSC1=NC#N"
> 100 µM

Which TGI is listed for "CC(=S)N=Cc1c(O)cc(C)oc1=O" ?
> 100 µM

Entry "Brc1cc2nn(-c3ccccc3)nc2c2nonc12" has what TGI?
> 100 µM

Given "C=C1C(=O)O[C@H]2[C@H]1CC/C(Cn1cc(-c3ccc(OC)cc3)nn1)=C\CC[C@@]1(C)O[C@@H]21" , state its recorded TGI.
29.9 µM
